- assayed_system: T1, Fas ligand (human, UniProt P48023 134-281, limits assumed)
- T1 sequence (looked up): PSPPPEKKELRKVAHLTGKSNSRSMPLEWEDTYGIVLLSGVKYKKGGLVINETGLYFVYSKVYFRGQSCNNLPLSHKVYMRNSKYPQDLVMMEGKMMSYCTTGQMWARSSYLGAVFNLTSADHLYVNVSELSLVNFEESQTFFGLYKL
- protocol_description: phage ELISA

binder	binding result
I018C10 (scFv) scFv: GVQLVQSGPEVKKPGASVKVSCTASGYTFTSYGVSWVRQAPGQGLEWIGWISAHNGQTKYAEKFQGRVTMTRNTSISTAYMELSSLRSEDTVVYYCARDGSYDILTGYYIDNYMDVWGKGTMVTVSSGGGGSGGGGSGGGGSSELTQDPAVSVALGQTVRITCQGDSLRSYYTNWFQQKPGQAPLLVVYAKNKRPSGIPDRFSGSSSGNTASLTITGAQAEDEADYYCHSRDSSGNHVLFGGGTKLTVLG	no binding
I029F11 (scFv) scFv: QVQLVQSRAEVKRPGASVKVSCKASGYRFGSYGITWVRQAPGQGLEWMGWISTRYGDTKSAQKVEGRVTLTTDTSTSTAYMELRSLRSDDTAVYYCARDGSYDILTGYYIDNYMDVWGRGTLVTVSSGGGGSGGGGSGGGGSQSVLTQPPSASGTPGQRVTISCSGSSSNIGSNTVNWYQRLPGAAPQLLIYNNDQRPSGIPDRFSGSKSGTSGSLVISGLQSEDEADYYCASWDDSLNGRVFGGGTKLTVLG	no binding
I037E12 (scFv) scFv: EVQLVQSGAEVKKPGASVKVSCKASGYTFTNYGITWVRQAPGQGLEWMGWISAYNGNRNYAQKLQGRVTMTTDTSTSTAYMELRSLRSDDTAVYYCVRDGIDILLVPAALMDVWGKGTLVTVSSGGGGSGGGGSGGGGSQSVLTQPASVSGSPGQSITISCTGTSSDVGGYNYVSWYQQHPGKAPKLMIYEGNKRPSGVSNRFSGSKSGNTASLTISGLQAEDEADYYCSSYTTRSTRVFGGGTKLTVLG	no binding
